Value source: patent US7211422B2

Tested on: α-isomaltosylglucosaccharide-forming enzyme from Bacillus globisporus N75
Test: Action on saccharides (TLC before and after enzymatic reaction)
Assay type: biochemical
Design: key: −: it showed no change; +: it showed a slight reduction of the color spot of the substrate and the formation of other reaction product; ++: it showed a high reduction of the color spot of the substrate and the formationof other reaction product; +++: it showed a substantial disappearance of the substrate spot and the formation of other reaction product
Details: two units/g substrate, substrate 2% (w/v), 30° C., pH 6.0, 24 hours
measuredQuantity: Enzyme action, N75 enzyme

Some entries whose results are on file:
OC[C@H]1O[C@H](O[C@H]2O[C@H](CO)[C@@H](O)[C@H](O)[C@H]2O)[C@H](O)[C@@H](O)[C@@H]1O = −
OC[C@H]1O[C@H](OC[C@H]2OC(O)[C@H](O)[C@@H](O)[C@@H]2O)[C@H](O)[C@@H](O)[C@@H]1O (stereo partly drawn) = −
OC[C@@H](O)[C@@H](O[C@H]1O[C@H](CO)[C@@H](O)[C@H](O)[C@H]1O)[C@H](O)[C@@H](O)CO = −
OC[C@@H](O)[C@@H](O[C@H]1O[C@H](CO)[C@@H](O[C@H]2O[C@H](CO)[C@@H](O)[C@H](O)[C@H]2O)[C@H](O)[C@H]1O)[C@H](O)[C@@H](O)CO = +

GET /value?item= OC[C@H]1O[C@H](O[C@H]2C(O)O[C@H](CO)[C@@H](O)[C@@H]2O)[C@H](O)[C@@H](O)[C@@H]1O (stereo partly drawn) &field=Enzyme action, N75 enzyme returns +

Record summary for "OC[C@H]1O[C@@](CO)(O[C@H]2O[C@H](CO)[C@@H](O)[C@H](O)[C@H]2O)[C@@H](O)[C@@H]1O" : reported Enzyme action, N75 enzyme = −

====

Would you kindly list Sugar composition of reaction mixture, substrate Mlatose for each of these compounds?
System: polypeptide having α-isomaltosylglucosaccharide-forming enzyme activity, obtained in Experiment 1-3
Assay: Reaction product from maltooligosaccharide (sugar composition by HPLC)
Format: biochemical, Bacillus globisporus C11
Design: unit not given here
Conditions: 1% (w/v) substrate, two units/g-solid, 35° C., pH 6.0, 8 hours
Method: To an aqueous solution containing one percent (w/v) of maltose, maltotriose, maltotetraose, or maltopentaose as a substrate was added the polypeptide having α-isomaltosylglucosaccgaride-forming enzyme activity, obtained in Experiment 1-3, in an amount of two units/g-solid for maltose and maltotriose, 0.2 unit/g-solid for maltotetraose, and 0.1 unit/g-solid for maltopentaose, followed by incubation at 35° C. and pH 6.0 for 8 hours. […]
Note: the reply should be a number with no unit written.

// "OC[C@H]1O[C@H](OC[C@H]2O[C@H](O[C@H]3[C@H](O)[C@@H](O)[C@@H](O[C@H]4[C@H](O)[C@@H](O)[C@@H](O)O[C@@H]4CO)O[C@@H]3CO)[C@H](O)[C@@H](O)[C@@H]2O)[C@H](O)[C@@H](O)[C@@H]1O" : Sugar composition of reaction mixture, substrate Mlatose value = 2.4

What the record says about "OC[C@H]1O[C@H](O[C@H]2[C@H](O)[C@@H](O)[C@H](O)O[C@@H]2CO)[C@H](O)[C@@H](O)[C@@H]1O" : Sugar composition of reaction mixture, substrate Mlatose is 78.0

Noted for OC[C@H]1O[C@H](OC[C@H]2O[C@H](O[C@H]3[C@H](O)[C@@H](O)[C@@H](O[C@H]4[C@H](O)[C@@H](O)[C@@H](O[C@H]5[C@H](O)[C@@H](O)C(O)O[C@@H]5CO)O[C@@H]4CO)O[C@@H]3CO)[C@H](O)[C@@H](O)[C@@H]2O)[C@H](O)[C@@H](O)[C@@H]1O (stereo partly shown) : its Sugar composition of reaction mixture, substrate Mlatose reads 0.0

GET /value?item= OC[C@H]1O[C@H](OC[C@H]2O[C@H](O[C@H]3[C@H](O)[C@@H](O)C(O)O[C@@H]3CO)[C@H](O)[C@@H](O)[C@@H]2O)[C@H](O)[C@@H](O)[C@@H]1O (stereo partly shown) &field=Sugar composition of reaction mixture, substrate Mlatose returns 8.2

====

Test system: α-isomaltosylglucosaccharide-forming enzyme from Bacillus globisporus C11
Experiment: Action on saccharides (TLC before and after enzymatic reaction)
Format: biochemical
Parameters: key: −: it showed no change; +: it showed a slight reduction of the color spot of the substrate and the formation of other reaction product; ++: it showed a high reduction of the color spot of the substrate and the formationof other reaction product; +++: it showed a substantial disappearance of the substrate spot and the formation of other reaction product
Details: two units/g substrate, substrate 2% (w/v), 30° C., pH 6.0, 24 hours
measuredQuantity: Enzyme action, C11 enzyme

As a guide, the following entries are already answered.
OC[C@H]1O[C@H](O[C@H]2O[C@H](CO)[C@@H](O[C@H]3O[C@H](CO)[C@@H](O)[C@H](O)[C@H]3O)[C@H](O)[C@H]2O)[C@H](O)[C@@H](O)[C@@H]1O [Maltosyl glucoside, maltosyl glucoside] = ++
OC[C@H]1O[C@@](CO)(O[C@H]2O[C@H](CO)[C@@H](O[C@H]3O[C@H](CO)[C@@H](O)[C@H](O)[C@H]3O)[C@H](O)[C@H]2O)[C@@H](O)[C@@H]1O = +
OC[C@H]1O[C@@](CO)(O[C@H]2O[C@H](CO)[C@@H](O)[C@H](O)[C@H]2O)[C@@H](O)[C@@H]1O = −
OC[C@H]1O[C@H](O[C@H]2[C@H](O)[C@@H](O)[C@@H](O[C@H]3[C@H](O)[C@@H](O)[C@@H](O[C@H]4[C@H](O)[C@@H](O)C(O)O[C@@H]4CO)O[C@@H]3CO)O[C@@H]2CO)[C@H](O)[C@@H](O)[C@@H]1O (some centres unmarked) = +++
OC[C@@H](O)[C@@H](O[C@H]1O[C@H](CO)[C@@H](O)[C@H](O)[C@H]1O)[C@H](O)[C@@H](O)CO = −
OC[C@H]1O[C@H](O[C@H]2[C@H](O)[C@@H](CO)OC(O)[C@@H]2O)[C@H](O)[C@@H](O)[C@@H]1O (some centres unmarked) = +
OC[C@H]1O[C@H](O[C@H]2O[C@H](CO)[C@@H](O)[C@H](O)[C@H]2O)[C@H](O)[C@@H](O)[C@@H]1O = −

From here, focus on the item given below.
compound OC[C@H]1O[C@H](O[C@H]2[C@H](O)[C@@H](O)[C@@H](OC[C@H]3OC(O)[C@H](O)[C@@H](O)[C@@H]3O)O[C@@H]2CO)[C@H](O)[C@@H](O)[C@@H]1O (some centres unmarked) , Enzyme action, C11 enzyme observed: ++

====

Can you tell me Sugar composition of reaction mixture, substrate Maltotetraose for the items I'm about to list?
System: polypeptide having α-isomaltosylglucosaccharide-forming enzyme activity, obtained in Experiment 1-3
Experiment: Reaction product from maltooligosaccharide (sugar composition by HPLC)
Format: biochemical, Bacillus globisporus C11
Set-up: unit not given here
Settings: 1% (w/v) substrate, 0.2 unit/g-solid, 35° C., pH 6.0, 8 hours

Noted for OC[C@H]1O[C@H](OC[C@H]2O[C@H](O[C@H]3[C@H](O)[C@@H](O)C(O)O[C@@H]3CO)[C@H](O)[C@@H](O)[C@@H]2O)[C@H](O)[C@@H](O)[C@@H]1O (stereo partly drawn) : its Sugar composition of reaction mixture, substrate Maltotetraose reads 0.0

Per the records, this compound ( "OC[C@H]1O[C@H](OC[C@H]2O[C@H](O[C@H]3[C@H](O)[C@@H](O)[C@@H](O[C@H]4[C@H](O)[C@@H](O)[C@@H](O)O[C@@H]4CO)O[C@@H]3CO)[C@H](O)[C@@H](O)[C@@H]2O)[C@H](O)[C@@H](O)[C@@H]1O" ) has Sugar composition of reaction mixture, substrate Maltotetraose equal to 6.8

Entry OC[C@H]1O[C@H](O[C@H]2[C@H](O)[C@@H](O)[C@@H](O[C@H]3[C@H](O)[C@@H](O)[C@@H](O[C@H]4[C@H](O)[C@@H](O)C(O)O[C@@H]4CO)O[C@@H]3CO)O[C@@H]2CO)[C@H](O)[C@@H](O)[C@@H]1O (stereo partly drawn) ; Sugar composition of reaction mixture, substrate Maltotetraose = 35.1

====

System: α-isomaltosylglucosaccharide-forming enzyme from Bacillus globisporus N75
Assay: Action on saccharides (TLC before and after enzymatic reaction)
Assay type: biochemical
Design: key: −: it showed no change; +: it showed a slight reduction of the color spot of the substrate and the formation of other reaction product; ++: it showed a high reduction of the color spot of the substrate and the formationof other reaction product; +++: it showed a substantial disappearance of the substrate spot and the formation of other reaction product
Conditions: two units/g substrate, substrate 2% (w/v), 30° C., pH 6.0, 24 hours
measuredQuantity: Enzyme action, N75 enzyme

OC[C@H]1O[C@H](O[C@H]2O[C@H](CO)[C@@H](O[C@H]3O[C@H](CO)[C@@H](O)[C@H](O)[C@H]3O)[C@H](O)[C@H]2O)[C@H](O)[C@@H](O)[C@@H]1O [Maltosyl glucoside, maltosyl glucoside] = ++
OC[C@H]1O[C@H](O[C@H]2O[C@H](CO)[C@@H](O)[C@H](O)[C@H]2O[C@H]2O[C@H](CO)[C@@H](O)[C@H](O)[C@H]2O)[C@H](O)[C@@H](O)[C@@H]1O [Selaginose, selaginose] = −
